Could you please report measured protein stability index for the items listed next?
B1: ANKRD9 (parent)
chain: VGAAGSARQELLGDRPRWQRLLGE

variants of: B1; assay: protein stability index of a GFP-peptide fusion (GPS, HEK-293T) (PSI 1-6); higher = more stable; settings: c terminus: a fixed tail appended;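 also: lentivirally expressed fusions sorted by FACS into six bins by GFP to DsRed ratio, PSI derived from sequencing read proportions per bin multiplied by bin number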

Record summary for VGAAGSARQELLGDRPRWQRGLGE [L21G] : reported protein stability index = 2.93

Lab note: VGAAGSARQELLGDRPRWQRLMGE [L22M] gave protein stability index of 2.28

The recorded protein stability index for VGAAGSARQELLEDRPRWQRLLGE [G13E] is 3.92

variant VGAAGSARQELLGDRPRWQRLLSE [G23S] , protein stability index observed: 4.39

# variant VGAAGSARQELLGDRPRWQRCLGE [L21C] ; its protein stability index = 3.75

For reference, reported protein stability index for VGAAGSARQELLGDRNRWQRLLGE [P16N] stands at 3.88

Memo: VGAAGSARYELLGDRPRWQRLLGE [Q9Y] , reported protein stability index: 2.27

Looking up VGAAGSQRQELLGDRPRWQRLLGE [A7Q] , I see its protein stability index listed as 4.21

Sample VGEAGSARQELLGDRPRWQRLLGE [A3E] ; protein stability index observed: 3.55

Field protein stability index (entry VGAAGSARQQLLGDRPRWQRLLGE [E10Q] ) reads 3

The variant identified as VGAACSARQELLGDRPRWQRLLGE [G5C] registered its protein stability index at 1.49

Just so you know, measured protein stability index for VGAAGSARQELLGDRPRWQRLLRE [G23R] came out at 2.99

Data point: VGAAGSAQQELLGDRPRWQRLLGE [R8Q] ; protein stability index = 3.37

Item: VGAAGSARQELLGDRPRWQLLLGE [R20L] | protein stability index: 2.72
